Reported pIC50 is given for each of the following molecules.
system: PC3 (human prostate adenocarcinoma); experiment: MTT cytotoxicity, PC3; settings: Homo sapiens, read-out: IC50 PC3, MTT; mean ± SD, triplicate
FYI, pIC50 means -log10 of a concentration in mol per litre.

1) CCOCC(O)C[P+](c1ccccc1)(c1ccccc1)c1ccccc1 (stereo not drawn) = 4.31

## Task If you can, please state the reported pIC50 value of COCC(O)C[P+](c1ccccc1)(c1ccccc1)c1ccccc1 (stereo not drawn) .
## Result 4.30

## Task If you can, please state the reported pIC50 value of OC(COCC(F)(F)C(F)F)C[P+](c1ccccc1)(c1ccccc1)c1ccccc1 (stereo not drawn) .
## Result 4.31

====

tested on: A549 (human lung carcinoma); experiment: MTT cytotoxicity, A549; type: cell-based; conditions: IC50 normal cells (WI38) / IC50 cancer cells; ns = no selectivity
readout_type: SI A549

1. CCCCCCCCCCCCCCCC(=O)OCC(O)C[P+](c1ccccc1)(c1ccccc1)c1ccccc1 (stereo not drawn) = ns
2. CCOCC(O)C[P+](c1ccccc1)(c1ccccc1)c1ccccc1.[I-] (stereo not drawn) = ns
3. OC(CF)C[P+](c1ccccc1)(c1ccccc1)c1ccccc1 (stereo not drawn) = ns

Reference source: paper PMC8588467
